# Measured On: pooled human IgG (human IgG1,2,3 and 4)
Consider the following proteins and their measured Enzyme Activity Endpoint Assay (purified): scIgG readings.
Express your answer in ng/µL, writing the number without its unit.

PRT-346 (protein) MSQTEDSESLQRLRDIEDFQAEKEMQNVVYTKWLDGVDVKDHDFRKIVDGNSAYYATPLLNGRGFYDINKDFNRDSDKCAAAVAANMFHYWLDINRDNVDRFLRQNPEKHGIIELPDGQLKLSDFLNTYESDHGYRDKSKLFDFISNNFNGPVWTDKLLDNYINGYAYNYKYGRTIEDPTKNTSKINFFKEVFNEKILTNNHSIRNQNEFSVLLSEALYTGKAIGLSYGPAGLRHSLGHIISVWGADLDADGNVVAIYVTDSDDKKLTIGDERVGLKRYKISTDDENRLRLTAYEETHNTGGQVRGLWTLDTGKYAWADYFDKTEQTGTDQAEQ; 246

QUERY: Look at this protein and give its reported Enzyme Activity Endpoint Assay (purified): scIgG. PRT-521 (protein) MVTSVWTKGVTPPADFTQGEDVFHAPYVANQGWYDITKTFNGKDNLLCGAATAGNMLHWWFDQNKEYIEAYLKKHPEKQKIIFNNQELFDLKAAINTKGSQKNSELFNYFRDKAFPNLSARRLGVFPDLVLDMFINGYYLNVTKTQTTDVNRTYQEKDKRGGIFDAVFTRGVQSKLLTSRHDLKNKGLKEISDLIKQELTEGKALGLSHTYANVRINHVINLWGADFDSDGNLKAIYVTDSDTNASIGMKKYFVGVNSAGKVAISAKEIKEDNIGAQVLGLFTLSTGQDIWNQTNLEHHHHHH
RESULT: 0

Ref: patent US20250027068
